Target: Adenosine receptor A1 (Homo sapiens)
Assay: Positive allosteric enhancement of human cloned adenosine A1 receptor expressed in CHO cells assessed as inhibition of forskolin-induced cAMP accumulation at 10 uM using [3H]-cAMP by scintillation counting relative to control
Assay type: functional, cell-based
Let's look at some compounds and their measured inhibition.
// units = %; emit number, no label

Value of measured inhibition for the entry Cc1ccc(Cc2c(-c3ccc(Cl)cc3)sc(N)c2C(=O)c2ccc(Cl)cc2)cc1 : 71

Value of measured inhibition for the entry Nc1sc(-c2ccccc2)c(Cc2ccc(C(F)(F)F)cc2)c1C(=O)c1ccc(Cl)cc1 : 69

Value of measured inhibition for the entry COc1ccc(Cc2sc(N)c(C(=O)c3ccc(Cl)cc3)c2-c2ccccc2)cc1 : 35

Value of measured inhibition for the entry Nc1sc(Cc2cccc3ccccc23)c(-c2ccccc2)c1C(=O)c1ccc(Cl)cc1 : 21

Value of measured inhibition for the entry Nc1sc(-c2ccc(F)cc2)c(Cc2ccccc2)c1C(=O)c1ccc(Cl)cc1 : 50

Value of measured inhibition for the entry CCOc1ccc(Cc2sc(N)c(C(=O)c3ccc(Cl)cc3)c2-c2ccccc2)cc1 : 22

Value of measured inhibition for the entry Nc1sc(-c2ccccc2)c(Cc2ccc(Cl)cc2)c1C(=O)c1ccc(Cl)cc1 : 61

Value of measured inhibition for the entry Cc1ccc(Cc2c(-c3ccccc3)sc(N)c2C(=O)c2ccc(Cl)cc2)cc1 : 56

Value of measured inhibition for the entry COc1cccc(Cc2c(-c3ccccc3)sc(N)c2C(=O)c2ccc(Cl)cc2)c1 : 66

Value of measured inhibition for the entry COc1ccc(Cc2c(-c3ccc(F)cc3)sc(N)c2C(=O)c2ccc(Cl)cc2)cc1 : 58

Value of measured inhibition for the entry CSc1ccc(Cc2c(-c3ccc(F)cc3)sc(N)c2C(=O)c2ccc(Cl)cc2)cc1 : 52

====

Molecular target: Adenosine receptor A1 (Homo sapiens) (UniProt P30542)
Assay: Binding affinity to human adenosine A1 receptor expressed in CHO cells assessed as fold Ki shift of CCPA at 10 uM after 90 mins by [3H]-CCPA displacement assay relative to control
Type: cell-based
Class boundaries, taken from values of fold change (FC), are as follows: small value (below 4), mid value (4 to below 6), large value (6 or more)

Past entries and their recorded results:
Cc1ccc(Cc2c(-c3ccccc3)sc(N)c2C(=O)c2ccc(Cl)cc2)cc1 ... mid value
Nc1sc(-c2ccc(Cl)cc2)c(Cc2ccc(F)cc2)c1C(=O)c1ccc(Cl)cc1 ... large value
COc1c(C)cc(Cc2c(-c3ccccc3)sc(N)c2C(=O)c2ccc(Cl)cc2)cc1C ... mid value
Nc1sc(Cc2ccc(OC(F)(F)F)cc2)c(-c2ccccc2)c1C(=O)c1ccc(Cl)cc1 ... small value
COc1ccc(Cc2c(-c3ccc(Cl)cc3)sc(N)c2C(=O)c2ccc(Cl)cc2)cc1 ... large value
Nc1sc(Cc2ccccc2)c(-c2ccccc2)c1C(=O)c1ccc(Cl)cc1 ... small value

Qu. Returns: class label. Input: COc1ccc(Cc2c(-c3ccc(OC)cc3)sc(N)c2C(=O)c2ccc(Cl)cc2)cc1
Ans. mid value

Qu. Returns: class label. Input: CSc1ccc(Cc2c(-c3ccccc3)sc(N)c2C(=O)c2ccc(Cl)cc2)cc1
Ans. large value

Qu. Returns: class label. Input: COc1ccc(Cc2c(-c3ccc(F)cc3)sc(N)c2C(=O)c2ccc(Cl)cc2)cc1
Ans. mid value

Qu. Returns: class label. Input: CCOc1ccc(Cc2sc(N)c(C(=O)c3ccc(Cl)cc3)c2-c2ccccc2)cc1
Ans. small value

Qu. Returns: class label. Input: Nc1sc(-c2ccccc2)c(Cc2ccc(F)cc2)c1C(=O)c1ccc(Cl)cc1
Ans. mid value

====

Let's look at some molecules and their measured inhibition.
Molecular target: Adenosine receptor A3 (Homo sapiens) (UniProt P0DMS8)
Sequence (P0DMS8 whole entry): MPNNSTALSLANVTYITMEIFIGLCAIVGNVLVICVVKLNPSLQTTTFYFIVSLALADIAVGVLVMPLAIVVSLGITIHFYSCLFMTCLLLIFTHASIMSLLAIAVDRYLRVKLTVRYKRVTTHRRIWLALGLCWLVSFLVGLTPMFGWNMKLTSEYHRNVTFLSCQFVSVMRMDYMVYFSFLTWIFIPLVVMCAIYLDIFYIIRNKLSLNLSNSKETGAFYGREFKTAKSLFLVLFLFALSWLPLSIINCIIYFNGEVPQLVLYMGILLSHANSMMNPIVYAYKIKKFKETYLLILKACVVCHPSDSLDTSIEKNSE
Experiment: Displacement of [3H]-MRE-3008-F20 from human adenosine A3 receptor expressed in CHO cells at 10 uM after 120 mins by scintillation counting
Assay type: cell-based

CCOc1ccc(Cc2sc(N)c(C(=O)c3ccc(Cl)cc3)c2-c2ccccc2)cc1 ... < 10%
COc1ccccc1Cc1c(-c2ccccc2)sc(N)c1C(=O)c1ccc(Cl)cc1 ... < 10%

Query Cc1ccc(Cc2c(-c3ccccc3)sc(N)c2C(=O)c2ccc(Cl)cc2)cc1 on Adenosine receptor A3 (Homo sapiens) (UniProt P0DMS8); inhibition returned: < 10%

====

Biological target: Adenosine receptor A1 (Homo sapiens) (UniProt P30542)
Sequence (whole entry): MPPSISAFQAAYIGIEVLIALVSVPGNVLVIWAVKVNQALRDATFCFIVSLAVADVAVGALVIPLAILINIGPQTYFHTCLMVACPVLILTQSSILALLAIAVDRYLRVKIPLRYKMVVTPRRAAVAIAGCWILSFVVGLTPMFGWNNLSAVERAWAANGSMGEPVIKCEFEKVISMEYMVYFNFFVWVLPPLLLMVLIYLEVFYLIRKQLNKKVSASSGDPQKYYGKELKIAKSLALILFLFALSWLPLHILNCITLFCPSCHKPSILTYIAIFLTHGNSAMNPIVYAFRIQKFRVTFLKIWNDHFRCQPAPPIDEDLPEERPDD
Experiment: Positive allosteric enhancement of human cloned adenosine A1 receptor expressed in CHO cells assessed as inhibition of forskolin-induced cAMP accumulation at 100 nM using [3H]-cAMP by scintillation counting relative to control in presence of 1 pM of CCPA
Type: functional, cell-based
# cutoff 60% applies to inhibition; >= gives true (1), < gives false (0)

CCOc1ccc(Cc2c(-c3ccccc3)sc(N)c2C(=O)c2ccc(Cl)cc2)cc1 ... true (1)
COc1cc(Cc2c(-c3ccccc3)sc(N)c2C(=O)c2ccc(Cl)cc2)cc(OC)c1OC ... false (0)
Nc1sc(-c2ccc(Cl)cc2)c(Cc2ccc(F)cc2)c1C(=O)c1ccc(Cl)cc1 ... true (1)
Cc1sc(N)c(C(=O)c2cccc(C(F)(F)F)c2)c1C ... false (0)

Qu. Textbook exercise: given the entry Nc1sc(Cc2ccccc2)c(-c2ccccc2)c1C(=O)c1ccc(Cl)cc1 , state whether its inhibition is greater than or equal to 60%.
Ans. false (0)

Qu. Textbook exercise: given the entry Nc1sc(-c2ccc(F)cc2)c(Cc2ccc(Cl)cc2)c1C(=O)c1ccc(Cl)cc1 , state whether its inhibition is greater than or equal to 60%.
Ans. false (0)

Qu. Textbook exercise: given the entry Nc1sc(-c2ccc(F)cc2)c(Cc2ccccc2)c1C(=O)c1ccc(Cl)cc1 , state whether its inhibition is greater than or equal to 60%.
Ans. false (0)

====

Let's look at some compounds and their measured inhibition.
Target: Adenosine receptor A1 (Homo sapiens)
Assay: Positive allosteric enhancement of human cloned adenosine A1 receptor expressed in CHO cells assessed as inhibition of forskolin-induced cAMP accumulation at 10 uM using [3H]-cAMP by scintillation counting relative to control
Assay type: functional, cell-based
// units = %; emit number, no label

Value of measured inhibition for the entry Nc1sc(-c2ccccc2)c(Cc2ccc(F)cc2)c1C(=O)c1ccc(Cl)cc1 : 58

Value of measured inhibition for the entry Nc1sc(-c2ccc(Cl)cc2)c(Cc2ccc(F)cc2)c1C(=O)c1ccc(Cl)cc1 : 75

Value of measured inhibition for the entry COc1ccc(Cc2c(-c3ccccc3)sc(N)c2C(=O)c2ccc(Cl)cc2)cc1C : 66

====

Target: Adenosine receptor A1 (Homo sapiens)
Assay: Binding affinity to human adenosine A1 receptor expressed in CHO cells assessed as fold Bmax shift of [3H]-CCPA at 10 uM after 90 mins by [3H]-CCPA binding assay relative to control
Assay type: cell-based
Measure Name: fold change (FC)
Form rule: numeric answer, no unit written next to it.

COc1ccc(-c2sc(N)c(C(=O)c3ccc(Cl)cc3)c2Cc2ccccc2)cc1 ... 4.8
COc1cccc(Cc2c(-c3ccccc3)sc(N)c2C(=O)c2ccc(Cl)cc2)c1 ... 7.3
COc1cccc(Cc2sc(N)c(C(=O)c3ccc(Cl)cc3)c2-c2ccccc2)c1 ... 2.6
Cc1ccc(Cc2c(-c3ccccc3)sc(N)c2C(=O)c2ccc(Cl)cc2)cc1 ... 5.6
COc1cc(Cc2c(-c3ccccc3)sc(N)c2C(=O)c2ccc(Cl)cc2)cc(OC)c1OC ... 4.3
Nc1sc(-c2ccccc2)c(Cc2ccc(C(F)(F)F)cc2)c1C(=O)c1ccc(Cl)cc1 ... 9.1
CC(C)(C)Cc1c(-c2ccc(Cl)cc2)sc(N)c1C(=O)c1ccc(Cl)cc1 ... 5.8
Nc1sc(-c2ccccc2)c(Cc2ccccc2)c1C(=O)c1ccc(Cl)cc1 ... 4.9
COc1c(C)cc(Cc2c(-c3ccccc3)sc(N)c2C(=O)c2ccc(Cl)cc2)cc1C ... 6.6
Nc1sc(-c2ccc(Cl)cc2)c(CN2CCN(c3ccc(Cl)cc3)CC2)c1C(=O)c1ccc(Cl)cc1 ... 11.4

Value of measured fold change (FC) for the entry COc1ccc(-c2sc(N)c(C(=O)c3ccc(Cl)cc3)c2Cc2ccc(SC)cc2)cc1 : 6.5

Value of measured fold change (FC) for the entry CC(C)Oc1ccc(Cc2c(-c3ccccc3)sc(N)c2C(=O)c2ccc(Cl)cc2)cc1 : 7.6

Value of measured fold change (FC) for the entry COc1ccc(Cc2c(-c3ccc(Cl)cc3)sc(N)c2C(=O)c2ccc(Cl)cc2)cc1 : 8.5

Value of measured fold change (FC) for the entry Nc1sc(-c2ccccc2)c(Cc2ccc(F)cc2)c1C(=O)c1ccc(Cl)cc1 : 6.3

Value of measured fold change (FC) for the entry Cc1sc(N)c(C(=O)c2cccc(C(F)(F)F)c2)c1C : 1.3

Value of measured fold change (FC) for the entry CCOc1ccc(Cc2c(-c3ccccc3)sc(N)c2C(=O)c2ccc(Cl)cc2)cc1 : 9.1

Value of measured fold change (FC) for the entry CC(C)Oc1ccc(Cc2sc(N)c(C(=O)c3ccc(Cl)cc3)c2-c2ccccc2)cc1 : 1.8

Value of measured fold change (FC) for the entry Nc1sc(Cc2cccc3ccccc23)c(-c2ccccc2)c1C(=O)c1ccc(Cl)cc1 : 1.5

Value of measured fold change (FC) for the entry Nc1sc(-c2ccc(F)cc2)c(Cc2ccc(F)cc2)c1C(=O)c1ccc(Cl)cc1 : 4.8

Value of measured fold change (FC) for the entry Cc1ccc(Cc2c(-c3ccc(F)cc3)sc(N)c2C(=O)c2ccc(Cl)cc2)cc1 : 6.5

Value of measured fold change (FC) for the entry COc1ccc(Cc2c(-c3ccccc3)sc(N)c2C(=O)c2ccc(Cl)cc2)cc1C : 8.1

Value of measured fold change (FC) for the entry COc1ccc(Cc2c(-c3ccc(F)cc3)sc(N)c2C(=O)c2ccc(Cl)cc2)cc1 : 6.3

Value of measured fold change (FC) for the entry Nc1sc(-c2ccccc2)c(Cc2cccc3ccccc23)c1C(=O)c1ccc(Cl)cc1 : 6.1
